Assay: Phase-solubility of dexmedetomidine in aqueous 2-HP-β-CD solutions (phosphate buffers, 32 °C)
Format: physicochemical
Details: phosphate buffer with 2-hp-β-cd, pH 8, pH 8; 2-HP-β-CD 50 % (m/V) (349 mM); 32° C.; read-out: DEX solubility
Test Readout: solubility at 240 h (mg/mL)
The figure you give is taken to be in mg/mL; do not add the unit.

[in] Data request, read-out solubility at 240 h, for `Cc1cccc([C@H](C)c2cnc[nH]2)c1C`
[out] 13.3
